# TARGET: T1, cynomolgus monkey SIRPγ on CHO cells (cynomolgus monkey, UniProt Q9P1W8 29-386 (human entry))
# T1 construct: also called Cyno SIRPγ CHO
# T1 chain: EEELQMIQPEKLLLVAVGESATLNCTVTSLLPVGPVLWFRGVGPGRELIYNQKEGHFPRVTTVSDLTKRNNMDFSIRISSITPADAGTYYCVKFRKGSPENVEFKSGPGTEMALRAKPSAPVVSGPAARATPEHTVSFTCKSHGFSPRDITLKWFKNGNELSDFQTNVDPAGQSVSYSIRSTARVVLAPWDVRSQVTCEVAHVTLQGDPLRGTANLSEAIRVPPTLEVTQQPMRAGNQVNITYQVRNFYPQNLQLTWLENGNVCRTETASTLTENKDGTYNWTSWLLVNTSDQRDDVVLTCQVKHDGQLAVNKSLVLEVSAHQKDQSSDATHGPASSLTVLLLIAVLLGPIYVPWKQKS
# TEST NAME: flow cytometry, myc-scFv PPE
QUANTITY NAME: MFI fold change over parental CHO (fold)
Dear colleague, please return just the value in fold, with no unit written.

Example entries and their recorded answers appear below.
Request: Given the binder Antibody 25 (scFv, V domains shown, scFv in crude PPE, V5/myc-tagged) VH: EVQLLESGGGLVQPGGSLRLSCAASGFTVGSWYMSWVRQAPGKGLEWVAHVSDDGSNEFYADSVKGRFTISRDNSKNTLYLQMNSLRAEDTAVYYCARSPGYCSSTSCYRYYGMDVWGQGTTVTVSS VL: DIQMTQSPSSLSASVGDRVTITCRTSQSIGTYLNWYQQKPGKAPKLLIYDASNLPTGVPSRFSGSGSGTDFTLTISSLQPEDFATYYCQNYNSALFGPGTKVDIK , what is its reported MFI fold change over parental CHO?
Result: 10.3

Request: Given the binder Antibody 28 (scFv, V domains shown, scFv in crude PPE, V5/myc-tagged) VH: QVQLVQSGAEVKKPGASVKVSCKASGYTFTSYNIHWVRQAPGQGLEWMGWISAYNGNTNYAQKLQGRVTMTRDTSTSTVYMELSSLRSEDTAVYYCALDGGQLGVAFDIWGQGTMVTVSS VL: DIQMTQSPSSLSASVGDRVTITCRASQGISNWLAWYQQKPGKAPKLLIYDASNLDAGVPSRFSGSGSGTDFTLTISSLQPEDFATYYCQQANSLPLTFGGGTKVEIK , what is its reported MFI fold change over parental CHO?
Result: 24

We now examine a further binder.
Request: Given the binder Antibody 29 (scFv, V domains shown, scFv in crude PPE, V5/myc-tagged) VH: QVQLVQSGAEVKKPGASVKVSCKASGGTFSSYAISWVRQAPGQGLEWMGIINPSSSSTGYAQKFQGRVTMTRDTSTSTVYMELSSLRSEDTAVYYCARAGYYDSSGYYYSPYYGMDVWGQGTTVTVSS VL: EIVMTQSPATLSVSPGERATLSCRASQSISGSYLAWYQQKPGQAPRLLIYGASTRATGIPARFSGSGSGTEFTLTISSLQSEDFAVYYCQQYGSFPFTFGPGTKVDIK , what is its reported MFI fold change over parental CHO?
Result: 13

Where do these numbers come from? They come from patent US20240400677A1.
